# System: NOMO1
# experimentSummary: cell viability relative to DMSO control; higher = less cytotoxic
# assaySetup: RPMI 5 mM glucose + 10% dialyzed FBS; 48 h; 0.0632 µM
Task for the reader: assign each of the following compounds its reported cell viability.
Reply with a number, then the unit it belongs to.

Enquiry: Please tell me: cell viability of CCN(CC)CCCC(C)Nc1ccnc2cc(Cl)ccc12 (configuration not stated) , system NOMO1?
Return: 120%

Enquiry: What about CC[C@H]1OC(=O)[C@H](C)[C@@H](O[C@H]2C[C@@](C)(OC)[C@@H](O)[C@H](C)O2)[C@H](C)[C@@H](O[C@@H]2O[C@H](C)C[C@H](N(C)C)[C@H]2O)[C@](C)(O)C[C@@H](C)/C(=N\OCOCCOC)[C@H](C)[C@@H](O)[C@]1(C)O ?
Return: 76.6%

Enquiry: What about Cc1cnc(Nc2cccc(CN3CCOCC3)c2)nc1Nc1cccc([S+](=O)([O-])NC(C)(C)C)c1 ?
Return: 88%

Enquiry: What about CCCCN1CCC(CNC(=O)c2c3n(c4ccccc24)CCCO3)CC1 ?
Return: 110%

Enquiry: What about Cc1nc(-c2ccc(-c3ccc(C(=O)N4CCc5cc6c(cc54)C4(CCN(C)CC4)CO6)cc3)c(C)c2)no1 ?
Return: 101%

Enquiry: What about c1ccc2c(CN3CCNCC3)cccc2c1 ?
Return: 115%

Enquiry: What about C[C@@H]1CC[C@@]2(CC[C@]3(C)\C(=C/C[C@@H]4[C@@]5(C)C[C@@H](O)[C@H](O)[C@@](C)(CO)[C@@H]5CC[C@@]34C)[C@@H]2[C@H]1C)C(O)=O ?
Return: 122%
